Measured target: pY641-STAT6 in PBMC (Homo sapiens, UniProt P42226)
Construct: Cryopreserved Peripheral Blood Mononuclear Cells (PBMC) are from AllCells; host or cells: cryopreserved PBMC
Sequence (P42226 whole entry): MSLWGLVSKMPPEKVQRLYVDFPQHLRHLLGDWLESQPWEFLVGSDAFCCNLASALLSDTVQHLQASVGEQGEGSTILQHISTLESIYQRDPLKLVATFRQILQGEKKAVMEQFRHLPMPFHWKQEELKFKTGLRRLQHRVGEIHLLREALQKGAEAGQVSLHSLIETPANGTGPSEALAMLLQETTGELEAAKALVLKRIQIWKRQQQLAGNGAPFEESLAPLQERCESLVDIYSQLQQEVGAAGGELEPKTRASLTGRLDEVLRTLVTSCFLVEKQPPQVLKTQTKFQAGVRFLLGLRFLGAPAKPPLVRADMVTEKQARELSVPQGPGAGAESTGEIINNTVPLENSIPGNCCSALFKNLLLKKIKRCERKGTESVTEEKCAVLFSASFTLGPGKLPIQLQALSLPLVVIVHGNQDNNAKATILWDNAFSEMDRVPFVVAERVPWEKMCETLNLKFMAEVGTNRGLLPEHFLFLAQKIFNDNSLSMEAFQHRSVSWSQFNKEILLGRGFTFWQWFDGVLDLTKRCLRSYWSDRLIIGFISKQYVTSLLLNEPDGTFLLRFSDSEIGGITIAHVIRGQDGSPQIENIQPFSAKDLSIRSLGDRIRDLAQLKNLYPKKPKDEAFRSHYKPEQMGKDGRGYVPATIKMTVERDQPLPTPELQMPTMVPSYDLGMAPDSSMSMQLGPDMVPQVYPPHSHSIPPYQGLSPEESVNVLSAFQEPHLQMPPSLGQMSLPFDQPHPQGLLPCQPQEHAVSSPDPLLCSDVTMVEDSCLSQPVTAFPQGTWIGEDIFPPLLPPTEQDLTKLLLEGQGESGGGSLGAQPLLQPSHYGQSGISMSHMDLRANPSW
Protocol details: MSD-pSTAT-PBMC Assay (pSTAT6, IL-4 stimulated)
Assay type: cell-based
Details: STAT6, PBMC, compound 3 hrs, then 1 ng/mL IL-4 for 10 min; Table 115
Protocol: Cryopreserved Peripheral Blood Mononuclear Cells (PBMC) are from AllCells. Recombinant Human IL-4 and IL-6 are from Peprotech. […] Cyropreserved PBMCs were thawed out and allowed to recover overnight in IMDM+10% heat-inactivated FBS prior to plating 50,000 (STAT3) or 25,000 (STAT6) cells per well in 96-well U-bottom tissue culture plates. […] Assay plates were then washed and 150 μL of 1× Read Buffer-T (MSD) was added to each well prior to reading on an SQ120 MSD Plate Reader. […]
Parameter IC50: see the listing below.

Below: 4 compounds and their reported IC50.
CCCOC(=O)[C@H](C)NP(=O)(Oc1ccccc1)[C@H](F)c1ccc2ccc(C(=O)N[C@H]3CCCC[C@H]4CC[C@@H](C(=O)N5C[C@H](c6ccccc6)[C@@H](C#N)C56CC6)N4C3=O)cc2c1 (some centres unmarked) = < 100 nM
CCCOC(=O)[C@H](C)NP(=O)(Oc1ccccc1)C(F)c1ccc2ccc(C(=O)N[C@H]3CCCC[C@H]4CC[C@@H](C(=O)N5CC(c6ccn(C)c(=O)c6)CC56CC6)N4C3=O)cc2c1 (some centres unmarked) = < 100 nM
CC(C)OC(=O)[C@H](C)NP(=O)(Cc1ccc2sc(C(=O)N[C@H]3CCCC[C@H]4CC[C@@H](C(=O)N5C[C@@H](c6cccnc6)CC56CC6)N4C3=O)cc2c1)Oc1ccccc1 (some centres unmarked) = 100 to 1000 nM
COCCOC(=O)[C@H](COC)NP(=O)(Oc1ccccc1)[C@@H](F)c1ccc2sc(C(=O)N[C@H]3CCCC[C@H]4CC[C@@H](C(=O)N5C[C@H](c6ccccc6)[C@@H](C#N)C56CC6)N4C3=O)cc2c1 (some centres unmarked) = < 100 nM

// IC50 lookup, compound = CC(C)OC(=O)[C@H](C)NP(=O)(Oc1ccccc1)[C@@H](F)c1ccc2sc(C(=O)N[C@H]3CCCC[C@H]4CC[C@@H](C(=O)N5C[C@@H](c6cccnc6)CC56CC6)N4C3=O)cc2c1 (some centres unmarked) , result: < 100 nM
